Where do these numbers come from? They come from ChEMBL document CHEMBL5233246.

Entries annotated with measured pIC50
Tested on: LoVo
assay_text: Antiproliferative activity against human LoVo cells assessed as reduction in cell viability incubated for 24 hrs by CCK-8 assay
Format: functional, cell-based
pIC50: −log10 of the molar value.
metric_name: pIC50

INSERT INTO measurements (molecule, test_target, inequality_operator, measured_number) VALUES
  ('C=CCc1ccc(O)c(-c2cc(CC=C)ccc2O)c1', 'LoVo', '<', 4.35),
  ('C=CCc1ccc(O)c(-c2cc(CC=C)ccc2OCC[S+]([O-])CCCCN=C=S)c1 (stereo not drawn)', 'LoVo', '=', 5.29),
  ('C[S+]([O-])CCCCN=C=S (stereo not drawn)', 'LoVo', '=', 4.73);

====

Test system: MDA-MB-231
assay_text: Antiproliferative activity against human MDA-MB-231 cells assessed as reduction in cell viability incubated for 24 hrs by CCK-8 assay
Assay type: functional, cell-based
test_settings: MDA-MB-231, 24 h
metric_name: IC50 (µM)

INSERT INTO results (molecule, metric_name, inequality_operator, measured_number) VALUES
  ('C=CCc1ccc(O)c(-c2cc(CC=C)ccc2O)c1', 'IC50', '>', 45),
  ('C[S+]([O-])CCCCN=C=S (stereo not drawn)', 'IC50', '=', 22.2),
  ('C=CCc1ccc(O)c(-c2cc(CC=C)ccc2OCC[S+]([O-])CCCCN=C=S)c1 (stereo not drawn)', 'IC50', '=', 7.48);

====

Below, each of the compounds is paired with its reported pIC50 value.
System: NCI-H1650
assay_text: Antiproliferative activity against human NCI-H1650 cells assessed as reduction in cell viability incubated for 24 hrs by CCK-8 assay
Format: functional, cell-based
test_settings: NCI-H1650, 24 h
pIC50: −log10 of the molar value.
metric_name: pIC50

INSERT INTO measurements (compound, metric_name, inequality_operator, measured_number) VALUES
  ('C[S+]([O-])CCCCN=C=S (stereo not drawn)', 'pIC50', '=', 4.66),
  ('C=CCc1ccc(O)c(-c2cc(CC=C)ccc2O)c1', 'pIC50', '<', 4.35),
  ('C=CCc1ccc(O)c(-c2cc(CC=C)ccc2OCC[S+]([O-])CCCCN=C=S)c1 (stereo not drawn)', 'pIC50', '=', 5.16);

====

Test system: U-251
assay_text: Antiproliferative activity against human U-251 cells assessed as reduction in cell viability incubated for 24 hrs by CCK-8 assay
Type: functional, cell-based
test_settings: U-251, 24 h
metric_name: IC50 (µM)

INSERT INTO measurements (compound, inequality_operator, measured_number) VALUES
  ('C=CCc1ccc(O)c(-c2cc(CC=C)ccc2O)c1', '>', 45),
  ('C[S+]([O-])CCCCN=C=S (stereo not drawn)', '=', 22.5),
  ('C=CCc1ccc(O)c(-c2cc(CC=C)ccc2OCC[S+]([O-])CCCCN=C=S)c1 (stereo not drawn)', '=', 7.75);
